# System: IL-6 release from A549 cells
# test.name: Cytokine inhibition assay, IL-6 release from A549 cells
# Assay type: cell-based
# particulars: Homo sapiens, TNFα 2 ng ml^-1, read-out: IC50 (suppression of IL-6 release)
attribute.measured: pIC50
Quick note: pIC50 means taking -log10 of the concentration in moles per liter.

# input Quick check: pIC50 of CON(C)C(=O)C1(OC(=O)c2ccco2)C(C)CC2C3CC(F)C4=Cc5c(cnn5-c5ccccc5)CC4(C)C3(F)C(O)CC21C (stereo not shown) ?
# output 10.30

# input Same question, C[C@@H]1C[C@H]2[C@@H]3CCC4=CC(=O)C=C[C@]4(C)[C@@]3(F)[C@@H](O)C[C@]2(C)[C@@]1(O)C(=O)CO [DEX, dexamethasone, reference compound] this time
# output 9.10

# input Moving on to CON(C)C(=O)C1(OC(=O)c2ccco2)CCC2C3CCC4=Cc5c(cnn5-c5ccccc5)CC4(C)C3C(O)CC21C (stereo not shown)
# output 10.15

# input Thanks! And C[C@@H]1C[C@H]2[C@@H]3C[C@H](F)C4=CC(=O)C=C[C@]4(C)[C@@]3(F)[C@@H](O)C[C@]2(C)[C@@]1(OC(=O)c1ccco1)C(=O)SCF [FF, fluticasone furoate, reference compound] ?
# output 10.52

* * *

# system.under.test: GR (Homo sapiens)
# Construct: expressed in transfected cells; host or cells: AD293
# Sequence (P04150 1-777): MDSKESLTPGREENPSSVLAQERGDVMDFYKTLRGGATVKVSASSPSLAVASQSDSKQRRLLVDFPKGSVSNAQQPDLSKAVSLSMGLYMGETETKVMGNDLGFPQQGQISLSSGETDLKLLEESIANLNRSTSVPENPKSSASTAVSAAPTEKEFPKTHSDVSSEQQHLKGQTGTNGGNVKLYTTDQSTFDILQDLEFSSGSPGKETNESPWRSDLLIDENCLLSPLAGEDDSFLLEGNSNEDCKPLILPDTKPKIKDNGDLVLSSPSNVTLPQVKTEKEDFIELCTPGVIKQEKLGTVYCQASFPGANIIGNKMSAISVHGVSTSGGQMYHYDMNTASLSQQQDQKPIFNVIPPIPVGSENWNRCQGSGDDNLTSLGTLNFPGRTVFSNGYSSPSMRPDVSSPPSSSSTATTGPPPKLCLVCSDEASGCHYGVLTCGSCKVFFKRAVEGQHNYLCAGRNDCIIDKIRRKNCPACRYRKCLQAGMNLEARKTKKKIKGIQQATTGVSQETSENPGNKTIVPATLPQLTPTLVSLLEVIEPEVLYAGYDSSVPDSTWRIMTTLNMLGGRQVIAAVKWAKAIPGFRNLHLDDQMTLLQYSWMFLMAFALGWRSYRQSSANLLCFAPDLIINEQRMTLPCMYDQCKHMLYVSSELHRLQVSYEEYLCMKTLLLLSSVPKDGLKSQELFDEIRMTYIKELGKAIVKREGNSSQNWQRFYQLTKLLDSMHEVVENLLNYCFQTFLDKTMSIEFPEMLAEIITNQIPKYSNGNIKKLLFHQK
# test.name: AP-1-Luc repression reporter assay in AD293 cells
# Assay type: cell-based
# particulars: AP-1 reporter, PMA 0.6 ng ml^-1
attribute.measured: IC50 (nM)
Report as a plain number; the unit nM is understood.

# input For the molecule shown here, CON(C)C(=O)C1(OC(=O)c2ccco2)CCC2C3CCC4=Cc5c(cnn5-c5ccccc5)CC4(C)C3C(O)CC21C (centres unmarked) , give the reported IC50.
# output 0.04

# input Next record, please: CON(C)C(=O)C1(OC(=O)c2ccco2)C(C)CC2C3CC(F)C4=Cc5c(cnn5-c5ccccc5)CC4(C)C3(F)C(O)CC21C (centres unmarked)
# output 0.02
